# measuredTarget: T1, Human PTGFRN-ECD (extracellular domain; amino-acid 26 to amino-acid Y at 832), His-tag protein (human, UniProt Q9P2B2 26-832)
# T1 construct: range 26-832; Expressed in Hek-293 cells, purified on a nickel column; also called recombinant PTGFRN; not shown: His-tag
# T1 sequence (looked up): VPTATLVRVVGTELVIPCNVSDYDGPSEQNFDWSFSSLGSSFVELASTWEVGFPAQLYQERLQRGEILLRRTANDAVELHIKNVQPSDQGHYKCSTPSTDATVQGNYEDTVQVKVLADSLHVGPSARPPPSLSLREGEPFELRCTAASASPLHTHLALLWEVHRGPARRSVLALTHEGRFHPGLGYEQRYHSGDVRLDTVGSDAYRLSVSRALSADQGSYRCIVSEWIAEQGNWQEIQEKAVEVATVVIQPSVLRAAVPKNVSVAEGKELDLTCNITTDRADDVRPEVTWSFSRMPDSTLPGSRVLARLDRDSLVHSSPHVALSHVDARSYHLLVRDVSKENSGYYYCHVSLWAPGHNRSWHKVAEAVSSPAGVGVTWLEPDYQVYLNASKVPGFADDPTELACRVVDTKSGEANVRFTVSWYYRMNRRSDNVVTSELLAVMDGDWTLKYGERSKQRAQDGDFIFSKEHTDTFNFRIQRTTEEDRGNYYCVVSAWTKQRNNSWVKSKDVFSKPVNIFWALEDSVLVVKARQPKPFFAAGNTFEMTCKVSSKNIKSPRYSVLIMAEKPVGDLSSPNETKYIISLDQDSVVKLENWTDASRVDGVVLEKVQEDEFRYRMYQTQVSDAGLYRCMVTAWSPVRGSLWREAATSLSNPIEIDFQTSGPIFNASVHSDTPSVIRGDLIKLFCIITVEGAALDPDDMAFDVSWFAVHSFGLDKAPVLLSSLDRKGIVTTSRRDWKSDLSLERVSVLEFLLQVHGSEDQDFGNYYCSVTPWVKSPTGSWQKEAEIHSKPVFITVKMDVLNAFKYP
# runDescription: BLI, Octet Red96, mAb on AMC sensor, PTGFRN-ECD 100 nM as analyte
resultType: kon (M⁻¹ s⁻¹)

- binder: "3E10 (antibody, V domains shown) VH: EVHLVESGGDLVKPGGSLKLSCAASGFTFSSYGMSWVRQTPDKRLEWVASISSGGSHTYYPDRVKGRFTISRDNAKNTLYLQMSSLKSEDTAMYYCARHPSYYGSSLYCFDYWGQGTTLTVSS VL: DIQMTQTTSSLSASLGDRVTISCRASQDISNYLNWYQQKPDGTVKLLIYYTSRLHSGVPSRFSGSGSGTDFSLTISNLEQEDVATYFCQQGSTLPWTFGGGTKLEIK"
  measuredResult: 120000
- binder: "1E2 (antibody, V domains shown, Mouse hybridoma mAb) VH: DVQLQESGPGLVKPSQSLSLTCSVTDYSITSGYYWNWIRQFPGNKLEWMGYISYDGSNNYNPSLKNRLSITRDTSKNQFFLKLNSVTPEDTATYYCARGWDYCFDYWGQGATLTVSS VL: DIQMTQTTSSLSASLGDRVTISCSASQGISNYLNWYQQKPDGTVKLLIYYTSGLHSGVPSRFSGSGSGTDYSLTISNLEPEDIATYYCQQYSQLPWTFGGGTKLEIK"
  measuredResult: 63800
- binder: "33B7 (antibody, V domains shown, Murine hybridoma monoclonal IgG (ATCC PTA-124281); also called AG02; AGO2) VH: DVQLQESGPGLVKPSQSLSLTCSVTGCSITSGYYWNWIRQFPGNKLEWMGYISHDGNNNYSPSLKNRISITRDTSKNQFFLKLNSVTTEDTATYYCARGFYYYGYFGYWGQGTTLTVSS VL: DIVMSQSPSSLAVSVGEKVTMSCKSSQSLLYSTNQKNYLAWYQQKPGQSPKPLIYWASTRESGVPDRFTGSGSGTDFTLTISSVKAEDLAVYYCQQYYSYRTFGGGTKLEIKR"
  measuredResult: 195000
- binder: "9A9 (antibody, V domains shown, Mouse hybridoma mAb) VH: QVQLQQSGPELVKPGASVKLSCKASGYTFTTYDINWVKQRPGQGLEWIGWLYPRDGNTNYNEKFKGKASLTVDTSSSTAYMELHSLTSEDSAVYFCARDYYGSTYGYFDYWGQGTTLTVSS VL: DIQMTQSPASLSASVGGTVTITCRASEKIYSYLAWYQQKQGKSPQLLVYDANTLAQGVPSRFSGSGSGTQFSLKINSLQPEDFGSYYCQHHYVTPLTFGAGTKLALK"
  measuredResult: 151000
